Cited source: PubChem BioAssay AID492953

Each entry below lists one item and its recorded inhibition value.
measurement.target: Platelet-activating factor acetylhydrolase IB subunit alpha2 (Homo sapiens) (UniProt P68402)
Sequence (P68402 whole entry, looked up): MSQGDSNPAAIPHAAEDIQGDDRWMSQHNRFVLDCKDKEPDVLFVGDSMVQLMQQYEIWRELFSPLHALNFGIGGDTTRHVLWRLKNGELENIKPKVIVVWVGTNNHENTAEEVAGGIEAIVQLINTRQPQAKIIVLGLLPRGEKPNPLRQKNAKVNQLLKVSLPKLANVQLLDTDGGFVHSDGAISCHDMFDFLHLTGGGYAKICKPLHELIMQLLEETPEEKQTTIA
test.protocol: PAFAH1B2 enzyme inhibitors, primary screen, biochemical, fluorescence polarization, human (AID 492953);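 further: 0% = enzyme with DMSO and 100% = wells lacking PAFAH1B2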
condition.description: recombinant PAFAH1B2, FP-rhodamine activity probe, at 3.39 µM, hits give high values
Among all 340,000 compounds or so, about 4,200 (1.2%) were called active. This excerpt belongs to a sample that is enriched for actives.
Answer in %, number only, no unit symbol.

>>> observed_result("C=CC[C@@H](CC(=O)N[C@H](CO)Cc1ccccc1)C(=O)N[C@@H](COC(=O)[C@@H](CC=C)Cc1ccc(F)cc1)Cc1c[nH]c2ccccc12")
-1.64

## Input Entry under review: `C=CC[C@@H](CC(=O)N[C@H](CO)Cc1ccccc1)C(=O)N[C@H](C)COC(=O)[C@@H](CC=C)Cc1ccc(F)cc1` . Reported inhibition?
## Output 26.8

## Input Entry under review: `COc1ccc(-c2cc(C(F)(F)F)nc(S(C)(=O)=O)n2)cc1OC` . Reported inhibition?
## Output -1.46

## Input Entry under review: `Cc1nc2nc(C)c(NS(=O)(=O)c3ccc(C(C)(C)C)cc3)c(=O)n2[nH]1` . Reported inhibition?
## Output 16.3

* * *

measurement.target: Platelet-activating factor acetylhydrolase IB subunit alpha2 (Homo sapiens)
test.protocol: PAFAH1B2 enzyme inhibitors, primary screen, biochemical, fluorescence polarization, human (AID 492953);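 further: 0% = enzyme with DMSO and 100% = wells lacking PAFAH1B2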
condition.description: recombinant PAFAH1B2, FP-rhodamine activity probe, at 3.39 µM, hits give high values
In all, about 340,000 compounds went through this assay and about 4,200 (1.2%) were called active. The full list was thinned out, with actives kept by preference.
Each entry below lists one item and its recorded inhibition value.
Answer in %, number only, no unit symbol.

>>> observed_result("COc1ccc(CN2CCN(C(=O)c3cc(C4CC4)nn3-c3ccccc3)CC2)cc1F")
2.17
>>> observed_result("Cc1ccc(S(=O)(=O)n2oc(=O)c(C3CCCCC3)c2N)cc1")
30.4

## Input Entry under review: `NS(=O)(=O)c1ccc(N=Nc2c(O)[nH]c3ccc(Br)cc23)cc1` . Reported inhibition?
## Output 11.8

## Input Entry under review: `O=C(NCCc1c[nH]c2ccccc12)c1cc2ccccc2oc1=O` . Reported inhibition?
## Output 6.1

## Input Entry under review: CCCCC1S/C(=N/N=C/c2cccs2)NC1=O (centres undefined) . Reported inhibition?
## Output 8.36

## Input Entry under review: `CN(O)C(=S)c1ccccc1` . Reported inhibition?
## Output -1.16

## Input Entry under review: `C=CCNC(=O)CCCC(=O)NCC=C` . Reported inhibition?
## Output 2.09

* * *

measurement.target: Platelet-activating factor acetylhydrolase IB subunit alpha2 (Homo sapiens) (UniProt P68402)
test.protocol: PAFAH1B2 enzyme inhibitors, primary screen, biochemical, fluorescence polarization, human (AID 492953);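 further: 0% = enzyme with DMSO and 100% = wells lacking PAFAH1B2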
condition.description: recombinant PAFAH1B2, FP-rhodamine activity probe, at 3.39 µM
Hit rate of the full screen: of about 340,000 compounds, about 4,200 (1.2%) were called active.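 Rule for the calls: active = inhibition above the mean of all tested compounds plus 3 SD (cut at about 24% in these data); inactive = the rest.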 The list comes from a sample in which actives are over-represented; it also holds close analogues and randomly drawn compounds.
In this exercise, the only acceptable responses are active, inactive

Worked examples follow.
>>> classification("COc1ccc(C(CNC(=O)c2cc(S(=O)(=O)Nc3cccc(C)c3)ccc2C)N2CCCC2)cc1 (configuration not stated)")
"inactive"
>>> classification("CCOC(=O)[C@H]1[C@H]2COc3ccccc3[C@@H]2N2C(=O)CN(Cc3ccccc3)C(=O)[C@@]12C")
"inactive"
>>> classification("O=C(O)c1[nH]c2ccccc2c1C(c1cccc(O)c1)c1c(C(=O)O)[nH]c2ccccc12")
"active"

## Input How was CN(C)C(=O)COC(=O)c1cccc(S(=O)(=O)N2CC3(C)CC2CC(C)(C)C3)c1 (configuration not stated) classified in this test?
## Output inactive

## Input How was Cc1ccc(C(=O)CN2C(=O)NC3(CCOc4ccccc43)C2=O)s1 (configuration not stated) classified in this test?
## Output inactive

## Input How was `Cc1ccc(NC(=S)NCCc2ccc(Cl)cc2)c(C)c1` classified in this test?
## Output active

## Input How was `O=C(CNC(=O)c1cc(S(=O)(=O)N2CCOCC2)ccc1N1CCCC1)Nc1ccc(F)c(F)c1` classified in this test?
## Output inactive

## Input How was `COc1ccc(C(=O)NNS(=O)(=O)c2ccc(C)cc2)cc1` classified in this test?
## Output inactive

* * *

Each entry below lists one item and its recorded inhibition value.
measurement.target: Platelet-activating factor acetylhydrolase IB subunit alpha2 (Homo sapiens) (UniProt P68402)
test.protocol: PAFAH1B2 enzyme inhibitors, primary screen, biochemical, fluorescence polarization, human (AID 492953);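 further: 0% = enzyme with DMSO and 100% = wells lacking PAFAH1B2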
condition.description: recombinant PAFAH1B2, FP-rhodamine activity probe, at 3.39 µM, hits give high values
Hit rate of the full screen: of about 340,000 compounds, about 4,200 (1.2%) were called active. The full list was thinned out, with actives kept by preference.
Answer in %, number only, no unit symbol.

Please review the following examples before continuing.
>>> observed_result("Cc1c(C(=O)OCC(=O)N(CCC#N)c2ccccc2)oc2c1ccc1ccccc12")
-1.31
>>> observed_result("CC1CCC2CCCCC2N1C(=O)c1cc([N+](=O)[O-])cc([N+](=O)[O-])c1 (stereo unspecified)")
24.7
>>> observed_result("Cc1cc(=O)cc(C)n1-c1ccc(Cl)c(Cl)c1")
4.86
>>> observed_result("CCCC(O)(c1ccccc1)C(c1ccccc1)c1ccccn1 (stereo unspecified)")
0.64
>>> observed_result("CC1(c2ccccc2)CC(C)(C)N(C(=O)c2cc([N+](=O)[O-])cc([N+](=O)[O-])c2)c2ccccc21 (stereo unspecified)")
-0.31

# context switch: different compound, same inhibition
## Input Entry under review: `CC1CCN(C(=S)c2cccc([N+](=O)[O-])c2)CC1` . Reported inhibition?
## Output 19.4

* * *

measurement.target: Platelet-activating factor acetylhydrolase IB subunit alpha2 (Homo sapiens)
test.protocol: PAFAH1B2 enzyme inhibitors, primary screen, biochemical, fluorescence polarization, human (AID 492953);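 further: 0% = enzyme with DMSO and 100% = wells lacking PAFAH1B2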
condition.description: recombinant PAFAH1B2, FP-rhodamine activity probe, at 3.39 µM, hits give high values
About 4,200 (1.2%) of roughly 340,000 compounds were called active. This excerpt belongs to a sample that is enriched for actives.
quantity.name: inhibition (%)
Answer in %, number only, no unit symbol.

>>> observed_result("O=C(N/N=C/c1cccnc1)c1ccc(NC(=O)c2ccc(F)cc2)cc1")
-2.15
>>> observed_result("Fc1ccc(/C=N/Nc2nc(-c3cccnc3)nc3ccccc23)cc1")
25.3
>>> observed_result("Cn1cc(C2OC(=O)c3ccccc32)c2ccccc21 (stereo not given)")
0.55

## Input Entry under review: `O=C(Cc1ccc(S(=O)(=O)N2CCOCC2)s1)Nc1ccc(Br)c(C(F)(F)F)c1` . Reported inhibition?
## Output -4.41

## Input Entry under review: CC(Oc1ccc(Cl)cc1)C(=O)OCC(=O)Nc1ncc(Cl)cc1Cl (stereo not given) . Reported inhibition?
## Output 30.6

## Input Entry under review: `C=CCO/N=C(\C)c1c(O)c(C)c(-c2ccccc2)n(-c2ccccc2)c1=O` . Reported inhibition?
## Output 31.5

## Input Entry under review: `Cc1ccsc1-c1nc(CSCC(=O)NCCN2CCCC2)c(C)o1` . Reported inhibition?
## Output 0.8

## Input Entry under review: `Cc1nn(-c2ccc(F)cc2)c(Cl)c1/C=C(/CCC(=O)O)c1nc2ccccc2s1` . Reported inhibition?
## Output 4.71

## Input Entry under review: `O=C(N/N=C\c1cccnc1)c1cc(-c2ccccc2)nc2c(Cl)cccc12` . Reported inhibition?
## Output -6.71

## Input Entry under review: `O=C(O)CC/C(=C\c1cc2c(cc1Br)OCO2)c1nc2ccccc2s1` . Reported inhibition?
## Output 27.5

* * *

measurement.target: Platelet-activating factor acetylhydrolase IB subunit alpha2 (Homo sapiens)
test.protocol: PAFAH1B2 enzyme inhibitors, primary screen, biochemical, fluorescence polarization, human (AID 492953);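 further: 0% = enzyme with DMSO and 100% = wells lacking PAFAH1B2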
condition.description: recombinant PAFAH1B2, FP-rhodamine activity probe, at 3.39 µM, hits give high values
In all, about 340,000 compounds went through this assay and about 4,200 (1.2%) were called active. The sample holds actives, similar compounds and a random draw of the others, so the mix is not that of the screen.
Each entry below lists one item and its recorded inhibition value.
Answer in %, number only, no unit symbol.

>>> observed_result("CC12c3ccccc3C(c3ccccc31)C1C(=O)N(Cc3cccnc3)C(=O)C12 (stereo unspecified)")
1.4
>>> observed_result("CCCCc1nc2cc(C(=O)NCCc3cnn(C)c3)ccc2o1")
-4.49
>>> observed_result("COC(=O)C1=C(N)Oc2c(oc(CO)cc2=O)C1c1c(F)cccc1Cl (stereo unspecified)")
0.05

## Input Entry under review: `CCN(C(=O)COC(=O)c1cc(NS(=O)(=O)c2ccc(Cl)c([N+](=O)[O-])c2)ccc1O)C1CCCCC1` . Reported inhibition?
## Output 45.9

## Input Entry under review: `Cc1ccc(SCC(=O)Nc2ncc(C)s2)cc1` . Reported inhibition?
## Output 26.1

## Input Entry under review: `CNC(=O)/C(=C\C=C\c1ccccc1)NC(=O)c1ccc([N+](=O)[O-])cc1` . Reported inhibition?
## Output -3.09

## Input Entry under review: `O=c1[nH]c2ccccc2s1` . Reported inhibition?
## Output 4.32

## Input Entry under review: `CCCCN(CC)CCCNC(=O)c1ccc(CSc2nc3ccncc3[nH]2)cc1` . Reported inhibition?
## Output -2.43
